Molecular target: human CB2 receptors (Homo sapiens, UniProt P34972)
Construct: expressed in transfected cells; host or cells: CHO cells
Sequence (P34972 whole entry): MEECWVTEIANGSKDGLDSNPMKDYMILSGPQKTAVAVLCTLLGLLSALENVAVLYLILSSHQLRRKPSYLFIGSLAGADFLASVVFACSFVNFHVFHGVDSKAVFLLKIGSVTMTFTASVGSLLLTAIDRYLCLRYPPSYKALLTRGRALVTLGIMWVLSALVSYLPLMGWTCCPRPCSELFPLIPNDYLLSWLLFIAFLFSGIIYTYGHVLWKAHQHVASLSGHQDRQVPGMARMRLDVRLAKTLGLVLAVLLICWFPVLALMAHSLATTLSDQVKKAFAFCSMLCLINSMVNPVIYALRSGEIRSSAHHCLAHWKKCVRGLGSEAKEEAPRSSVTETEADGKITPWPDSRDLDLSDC
Assay: cAMP assay, human CB2
Format: cell-based
Details: functional cAMP assay, CHO cells expressing human CB2; read-out: Ec50: CB2 - hu cAMP
parameter-measured: EC50 (nM)

Known EC50 results, listed for orientation:
> print(dat)
                                   compound  endpoint.value
1  CC(=O)N[C@@H]1CCN(C(=O)n2nnn(-c3cccc(F)c3)c2=O)C1            25.8
2  Cc1cc(C2CCCN2C(=O)n2nnn(-c3cccc(OC(F)(F)F)c3)c2=O)on1 (stereo not drawn)            28.5
3     O=C(N1CCOCC1)n1nnn(-c2ccc(F)cc2F)c1=O              12
4  CCN(C(C)=O)C1CCN(C(=O)n2nnn(-c3cccc(OC(F)(F)F)c3)c2=O)C1 (stereo not drawn)              27
5  CC1CN(C(=O)n2nnn(-c3cccc(F)c3)c2=O)CC(C)O1 (stereo not drawn)            45.4

a: O=C(CN1CCN(C(=O)n2nnn(-c3cccc(OC(F)(F)F)c3)c2=O)CC1)N1CCCC1
b: O=c1n(Cc2ccc(F)cc2)nnn1-c1cccc(F)c1
c: CCOCCN(C)C(=O)n1nnn(-c2ccc(Cl)cc2)c1=O
d: Cn1ccc2c(-n3nnn(C(=O)N4CCOCC4)c3=O)cccc21
List from greatest to least EC50. Output spec: a listing of the labels in the requested order. b, a, d, c

----------
Measured pEC50 of individual entries
Biological target: human CB2 receptors (Homo sapiens, UniProt P34972)
Construct: expressed in transfected cells; host or cells: CHO cells
Test: cAMP assay, human CB2
Format: cell-based
Units for pEC50: none; it is -log10 of a concentration expressed in mol/L.

Known pEC50 results, listed for orientation:
> print(dat)
                                 cpd.smiles  endpoint.value
1    CCCN(CCOC)C(=O)n1nnn(-c2cccc(F)c2)c1=O            7.77
2  COCCCN(C)C(=O)n1nnn(-c2cccc(OC(F)(F)F)c2)c1=O            8.44
3     O=C(N1CCOCC1)n1nnn(-c2c(F)cccc2F)c1=O            7.72

Note down pEC50 recorded for CCN(Cc1ccccc1)C(=O)n1nnn(-c2ccc(Cl)nc2)c1=O 9.00

Note down pEC50 recorded for CCN(CCOC)C(=O)n1nnn(-c2cccc(F)c2)c1=O 8.57

Note down pEC50 recorded for CCOCCN(C)C(=O)n1nnn(-c2cccc(OC(F)(F)F)c2)c1=O 8.39

Note down pEC50 recorded for CCN(CCOC)C(=O)n1nnn(-c2ccc(Cl)cc2)c1=O 8.48

Note down pEC50 recorded for COCCN(C(=O)n1nnn(-c2cccc(Cl)c2)c1=O)C(C)C 8.28

Note down pEC50 recorded for CCOCCN(CC)C(=O)n1nnn(-c2ccc(Cl)cc2)c1=O 8.77

----------
Molecular target: human CB2 receptors (Homo sapiens, UniProt P34972)
Construct: expressed in transfected cells; host or cells: CHO cells
Experiment: cAMP assay, human CB2
Assay type: cell-based
Conditions: functional cAMP assay, CHO cells expressing human CB2; read-out: Ec50: CB2 - hu cAMP
parameter-measured: EC50 (nM)

> print(dat)
                                   compound  parameter.measured  endpoint.value
1  CC(=O)N1CCN(C(=O)n2nnn(-c3cccc(F)c3)c2=O)CC1 [Example 38]                EC50              92
2  Cc1cc(C2CCCN2C(=O)n2nnn(-c3cccc(Cl)c3)c2=O)on1 (centres unmarked) [Example 74]                EC50             9.7

A: CC(=O)N[C@@H]1CCN(C(=O)n2nnn(-c3cccc(Cl)c3)c2=O)C1 [Example 65]
B: CC(C)(C)OC(=O)N1CCC(n2nnn(-c3cccc(F)c3)c2=O)CC1 [Example 15]
C: O=C(Cn1nnn(-c2cccc(Cl)c2)c1=O)N1CCOCC1 [Example 115]
D: O=C(CN1CCN(C(=O)n2nnn(-c3cccc(OC(F)(F)F)c3)c2=O)CC1)N1CCOCC1 [Example 90]
Which order do these items take when sorted by rising EC50? List them. Output spec: a listing of the labels in the requested order. A, D, C, B
(A: 15 nM, D: 67 nM, C: 2020 nM, B: 3000 nM)

I: CC(=O)NC1CCN(C(=O)n2nnn(-c3cccc(F)c3)c2=O)CC1 [Example 26]
II: CC1(C)CCN(C(=O)n2nnn(-c3cccc(OC(F)(F)F)c3)c2=O)CC1 [Example 78]
III: O=C(N1CCOCC1)n1nnn(-c2ccccc2C(F)(F)F)c1=O [Example 119]
IV: COC(=O)C1(NC(=O)OC(C)(C)C)CCN(C(=O)n2nnn(-c3cccc(F)c3)c2=O)CC1 [Example 62]
Which order do these items take when sorted by rising EC50? List them. Output spec: a listing of the labels in the requested order. II, I, IV, III
(II: 1.5 nM, I: 17.8 nM, IV: 61.4 nM, III: 386 nM)

1: CCOC(=O)C(C)(C)n1nnn(-c2cccc(F)c2)c1=O [Example 16]
2: CCCCNC(=O)CN1CCN(C(=O)n2nnn(-c3cccc(OC(F)(F)F)c3)c2=O)CC1 [Example 108]
3: N#C[C@@H]1CCCN1C(=O)n1nnn(-c2cccc(F)c2)c1=O [Example 51]
Which order do these items take when sorted by rising EC50? List them. Output spec: a listing of the labels in the requested order. 2, 3, 1
